The reported measurements were obtained from paper PMC12203311.

test system: RXF 393; assay: NCI60 five-dose screen; type: cell-based; details: Homo sapiens; RXF 393, renal cancer; read-out: LC50 (the source's name)
Answer each item with its documented CC50.

Output CC50 of O=C(N/N=C/c1cc([N+](=O)[O-])c[nH]1)c1[nH]c2ccc(Br)cc2c1-c1ccccc1
> 100 µM

State, in one line, measured CC50 of CCOC(=O)c1cc(/C=N/NC(=O)c2[nH]c3ccc(Br)cc3c2-c2ccccc2)c[nH]1
33 µM

Note down CC50 recorded for Cn1cccc1/C=N/NC(=O)c1[nH]c2ccc(Br)cc2c1-c1ccccc1
> 100 µM

Quote CC50 reported for CCc1cc[nH]c1/C=N/NC(=O)c1[nH]c2ccc(Br)cc2c1-c1ccccc1 please.
18.7 µM

Using the record for O=C(N/N=C/c1cc(Br)c[nH]1)c1[nH]c2ccc(Br)cc2c1-c1ccccc1 , state its measured CC50.
37.9 µM

Please give the documented CC50 of O=C(N/N=C/c1[nH]ccc1Cl)c1[nH]c2ccc(Br)cc2c1-c1ccccc1
42.1 µM

Supply measured CC50 of O=C(N/N=C/c1cc(Br)c(Br)[nH]1)c1[nH]c2ccc(Br)cc2c1-c1ccccc1 in your reply.
34.3 µM

For the compound Cc1cc(C)c(/C=N/NC(=O)c2[nH]c3ccc(Br)cc3c2-c2ccccc2)[nH]1 , give its measured CC50 value.
35 µM

Find the measured CC50 of CCc1c[nH]c(/C=N/NC(=O)c2[nH]c3ccc(Br)cc3c2-c2ccccc2)c1 and report it.
21 µM

Using known records, supply CC50 for O=C(N/N=C/c1cc(Cl)c[nH]1)c1[nH]c2ccc(Br)cc2c1-c1ccccc1
34.3 µM

Complete the entry with CC50 for CCOC(=O)c1c[nH]c(/C=N/NC(=O)c2[nH]c3ccc(Br)cc3c2-c2ccccc2)c1
22 µM

Identify measured CC50 associated with CCOC(=O)c1ccc(/C=N/NC(=O)c2[nH]c3ccc(Br)cc3c2-c2ccccc2)[nH]1
66.4 µM

Using the record for O=C(N/N=C/c1ccc([N+](=O)[O-])[nH]1)c1[nH]c2ccc(Br)cc2c1-c1ccccc1 , state its measured CC50.
41.2 µM

----------
system: DU-145; experiment: NCI60 five-dose screen; type: cell-based; settings: Homo sapiens; DU-145, prostate cancer; read-out: LC50 (the source's name)
Record form. Attribute: CC50. Fill in for each entry.

Identify measured CC50 associated with Cn1cccc1/C=N/NC(=O)c1[nH]c2ccc(Br)cc2c1-c1ccccc1
> 100 µM

Determine from records and report CC50 for O=C(N/N=C/c1cc([N+](=O)[O-])c[nH]1)c1[nH]c2ccc(Br)cc2c1-c1ccccc1
> 100 µM

Annotate the molecule O=C(N/N=C/c1ccc(C(=O)N2CCOCC2)[nH]1)c1[nH]c2ccc(Br)cc2c1-c1ccccc1 with its measured CC50.
> 100 µM

----------
Give log10 GI50 for every item shown.
Annotation: log10 of GI50, nM basis.

Answer briefly: log10 GI50 recorded on NCI-H522 for CCOC(=O)c1cc(/C=N/NC(=O)c2[nH]c3ccc(Br)cc3c2-c2ccccc2)c[nH]1
3.38

Return reported log10 GI50 for target or system NCI-H522, item O=C(N/N=C/c1[nH]ccc1Cl)c1[nH]c2ccc(Br)cc2c1-c1ccccc1 .
2.37

Find log10 GI50 for Cc1cc(C)c(/C=N/NC(=O)c2[nH]c3ccc(Br)cc3c2-c2ccccc2)[nH]1 on NCI-H522 and write it down.
3.42

Give the observed log10 GI50 of O=C(N/N=C/c1cc(Br)c[nH]1)c1[nH]c2ccc(Br)cc2c1-c1ccccc1 for NCI-H522.
2.27

Provide measured log10 GI50 on NCI-H522 for Cn1cccc1/C=N/NC(=O)c1[nH]c2ccc(Br)cc2c1-c1ccccc1 please.
2.34

Identify measured log10 GI50 obtained with NCI-H522 for O=C(N/N=C/c1cc([N+](=O)[O-])c[nH]1)c1[nH]c2ccc(Br)cc2c1-c1ccccc1 .
2.86

Specify the recorded log10 GI50 for O=C(N/N=C/c1ccc([N+](=O)[O-])[nH]1)c1[nH]c2ccc(Br)cc2c1-c1ccccc1 , system: NCI-H522.
2.77

Lab note: NCI-H522 assay, enter log10 GI50 for CCOC(=O)c1c[nH]c(/C=N/NC(=O)c2[nH]c3ccc(Br)cc3c2-c2ccccc2)c1 here
3.36

----------
test system: PC-3; test: NCI60 five-dose screen; type: cell-based; settings: Homo sapiens; PC-3, prostate cancer; read-out: LC50 (the source's name)
assay_endpoint: CC50 (µM)
Express the result in µM but write the number alone.

Identify measured CC50 associated with O=C(N/N=C/c1cc(Cl)c[nH]1)c1[nH]c2ccc(Br)cc2c1-c1ccccc1 [Derivative 3h]
47.6

Supply reported CC50 belonging to this compound: O=C(N/N=C/c1cc(Br)c[nH]1)c1[nH]c2ccc(Br)cc2c1-c1ccccc1 [Derivative 3e]
38.1

Return value of CC50 for input CCc1c[nH]c(/C=N/NC(=O)c2[nH]c3ccc(Br)cc3c2-c2ccccc2)c1 [Derivative 3t] , no commentary.
57

Hello, please tell me recorded CC50 for this one: Cc1[nH]c(/C=N/NC(=O)c2[nH]c3ccc(Br)cc3c2-c2ccccc2)c(C)c1[N+](=O)[O-] [Derivative 3r]
45.5

----------
test system: KM12
Classes are defined on GI50 with ranges low-valued (below 400 nM), mid-valued (400 nM to below 2000 nM), high-valued (2000 nM or more)

Each compound maps to one class by GI50. Which class for CCc1c[nH]c(/C=N/NC(=O)c2[nH]c3ccc(Br)cc3c2-c2ccccc2)c1 ?
low-valued

Bin? O=C(N/N=C/c1cc(Br)c(Br)[nH]1)c1[nH]c2ccc(Br)cc2c1-c1ccccc1
high-valued

For this compound, which bin applies? Cn1cccc1/C=N/NC(=O)c1[nH]c2ccc(Br)cc2c1-c1ccccc1
low-valued

Assign a category based on measured GI50 for CCOC(=O)c1cc(/C=N/NC(=O)c2[nH]c3ccc(Br)cc3c2-c2ccccc2)c[nH]1 and give only the class name.
high-valued

Hey, which category is O=C(N/N=C/c1cc[nH]c1)c1[nH]c2ccc(Br)cc2c1-c1ccccc1 in, do you know?
mid-valued

Input O=C(N/N=C/c1cc([N+](=O)[O-])c[nH]1)c1[nH]c2ccc(Br)cc2c1-c1ccccc1 ; output its category
mid-valued

Lab note: sort Cc1[nH]c(/C=N/NC(=O)c2[nH]c3ccc(Br)cc3c2-c2ccccc2)c(C)c1[N+](=O)[O-] into the matching GI50 band.
mid-valued

Form: Item = CCc1cc[nH]c1/C=N/NC(=O)c1[nH]c2ccc(Br)cc2c1-c1ccccc1 ; Class = ?
high-valued

// return the class label for O=C(N/N=C/c1cc(Cl)c[nH]1)c1[nH]c2ccc(Br)cc2c1-c1ccccc1
low-valued

Form: Item = CCc1ccc(/C=N/NC(=O)c2[nH]c3ccc(Br)cc3c2-c2ccccc2)[nH]1 ; Class = ?
low-valued

Sort into band: O=C(N/N=C/c1ccc(C(=O)N2CCOCC2)[nH]1)c1[nH]c2ccc(Br)cc2c1-c1ccccc1
high-valued

----------
Provide the reported pIC50 of each item.
Target: Human CYP19 (aromatase) (Homo sapiens)
Sequence (P11511 1-503): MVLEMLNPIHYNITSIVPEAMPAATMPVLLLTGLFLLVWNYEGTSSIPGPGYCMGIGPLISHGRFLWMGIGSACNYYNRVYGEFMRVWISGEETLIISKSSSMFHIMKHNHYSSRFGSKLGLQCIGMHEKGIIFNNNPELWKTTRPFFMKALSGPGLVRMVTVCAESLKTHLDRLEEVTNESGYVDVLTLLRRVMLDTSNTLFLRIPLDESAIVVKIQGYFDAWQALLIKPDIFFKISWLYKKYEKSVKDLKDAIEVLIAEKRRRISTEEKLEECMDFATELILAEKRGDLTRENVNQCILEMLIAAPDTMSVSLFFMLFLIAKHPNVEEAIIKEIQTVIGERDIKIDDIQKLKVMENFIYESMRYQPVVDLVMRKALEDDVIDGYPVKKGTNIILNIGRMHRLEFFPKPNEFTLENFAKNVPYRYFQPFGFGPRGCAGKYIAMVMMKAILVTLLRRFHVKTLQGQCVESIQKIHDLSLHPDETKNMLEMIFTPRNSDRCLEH
Give only the number. pIC50 is defined as minus log10 of concentration in molar units.

Give pIC50 for this entry on Human CYP19 (aromatase) (Homo sapiens): CCOC(=O)c1cc[nH]c1/C=N/NC(=O)c1[nH]c2ccc(Br)cc2c1-c1ccccc1
7.74

Find pIC50 for O=C(N/N=C/c1cc(C(=O)N2CCOCC2)c[nH]1)c1[nH]c2ccc(Br)cc2c1-c1ccccc1 on Human CYP19 (aromatase) (Homo sapiens) and write it down.
5.80

Provide pIC50, tested on Human CYP19 (aromatase) (Homo sapiens), for O=C(N/N=C/c1c[nH]c(C(=O)N2CCOCC2)c1)c1[nH]c2ccc(Br)cc2c1-c1ccccc1 .
5.43
